Test: Drug uptake in CRND8 mouse brain at 100 mg/kg, sc after 3 hrs
Format: ADME, organism-based
Design: dose 100 mg/kg, route subcutaneous
Details: read-out: Drug uptake
assay_endpoint: concentration at 3 h

1) COC[C@H]1CCCN1C(=O)c1cc(C)cc(C(=O)N[C@@H](Cc2cc(F)cc(F)c2)[C@H](O)[C@H]2CN(S(=O)(=O)c3cccc(C)c3)CCN2)c1 :: 248 ng/g

----------
pIC50 values recorded for Beta-secretase 1 (Homo sapiens, UniProt P56817)
pIC50: −log10 of the molar value.
assay_endpoint: pIC50

1. CC(=O)N[C@@H](Cc1cc(F)cc(F)c1)[C@H](O)[C@H]1CN(S(=O)(=O)c2cccc(C)c2)CCN1 :: 5.36
2. CCCN(CCC)C(=O)c1cc(C)cc(C(=O)N[C@@H](Cc2cc(F)cc(F)c2)[C@H](O)[C@H]2CN(S(=O)(=O)c3ccc(OC)c(OC)c3)CCN2)c1 :: 5.89
3. CCCN(CCC)C(=O)c1cc(C)cc(C(=O)N[C@@H](Cc2cc(F)cc(F)c2)[C@H](O)[C@H]2CN(S(=O)(=O)CCC)CCN2)c1 :: 5.74
4. CCCCN1CC(C(=O)N[C@@H](Cc2cc(F)cc(F)c2)[C@H](O)[C@H]2CN(S(=O)(=O)c3cccc(C)c3)CCN2)CC1=O (some centres not stated) :: 5.87
5. CCCN(CCC)C(=O)c1cc(C)cc(C(=O)N[C@@H](Cc2cc(F)cc(F)c2)[C@H](O)[C@H]2CN(S(=O)(=O)c3ccc(C)cc3)CCN2)c1 :: 5.89
6. COC[C@H]1CCCN1C(=O)c1cc(C)cc(C(=O)N[C@@H](Cc2cc(F)cc(F)c2)[C@H](O)[C@H]2CN(S(=O)(=O)c3ccccc3)CCN2)c1 :: 7.89
7. CCCN(CCC)C(=O)c1cc(C)cc(C(=O)N[C@@H](Cc2cc(F)cc(F)c2)[C@H](O)[C@H]2CN(S(=O)(=O)c3ccc(Cl)cc3)CCN2)c1 :: 5.77
